Origin of the recorded values: ChEMBL document CHEMBL3045304

Form field: Activity (one value per entry).
- System: Allium cepa
- ASSAY_INFO: Stimulation of hypocotyl length of Allium cepa cv. Valenciana (onion) at 0.1 mM or 1 mM after 5 days relative to untreated control
- Format: functional

COMPOUND	Activity
C=C1[C@@H]2[C@H]3OC(=O)C(=C)[C@@H]3CCC(=C)[C@@H]2C[C@H]1O	>40%
C=C1CC[C@H]2C(=C)CC[C@@H]3[C@H](OC(=O)[C@H]3CO)[C@@H]12	>40%
C=C1C(=O)O[C@H]2[C@H]1CCC(=C)[C@@H]1C[C@@H](O)C(=C)[C@@]12O [5ALPHA-HYDROXYISOZALUZANIN C]	>40%
C=C1C(=O)C[C@H]2C(=C)CC[C@H]3C(=C)C(=O)O[C@@H]3[C@@H]12 [DEHYDROZALUZANIN C]	>40%

Activity reported for this compound COc1nc(C)nc(NC(=O)NS(=O)(=O)c2ccccc2OCCCl)n1 : >40%

Activity reported for this compound C=C1C(=O)O[C@H]2[C@H]1CCC(=C)[C@@H]1CCC(=C)[C@@]12O : <20%
